Values compiled from PubChem BioAssay (NCI).

The entries below come with measured TGI values attached.
Tested on: ACHN renal
Assay Name: NCI tumour cell line growth inhibition, 48 h
Measured Property: TGI

compound=NC(=O)c1ccc2nc(-c3ccc(C4(N)CCC4)cc3)c(-c3ccccc3)n2n1 recorded_result="20.8 µM"
compound=CCN1/C(=C/C=C/C=C/c2sc3ccccc3[n+]2CC)Sc2ccccc21 recorded_result="3.28 µM"
compound=COc1cc(OC)cc(-c2ccc(-c3ccc(C(=N)N)s3)s2)c1 recorded_result="3.25 µM"
compound=CC(C)(C)OC(=O)N1CC(Cn2cc(C(F)(F)F)c3c(Cl)ncnc32)C1 recorded_result="31.9 µM"
compound=Nc1c(S(=O)(=O)O)cc(Nc2cccc(S(N)(=O)=O)c2)c2c1C(=O)c1ccccc1C2=O recorded_result="> 100 µM"
compound=Nc1ccc(-c2ccc(Nc3cc(S(=O)(=O)O)c(N)c4c3C(=O)c3ccccc3C4=O)cc2)c(S(=O)(=O)O)c1 recorded_result="> 100 µM"
compound="NC1=NN(c2ccccc2)C(=O)C1/C(=N\\NC(=O)c1cc2ccccc2cc1O)C(=O)Nc1nc([N+](=O)[O-])cs1 (stereo not given)" recorded_result="> 100 µM"
compound=COc1ccc2[nH]c3c(C)c4cc[n+](C)cc4c(C)c3c2c1 recorded_result="> 85.3 µM"
compound=Cc1ccc(/C=N/NS(=O)(=O)c2ccccc2)cc1 recorded_result="> 100 µM"
compound=COc1cc(-c2nc3ccccc3[nH]2)ccc1OCC(=O)N=Nc1c(O)[nH]c2ccc(Cl)cc12 recorded_result="> 100 µM"
compound="C[N+]1(C)CCOC(O)(c2ccccc2)C1 (stereo not given)" recorded_result="> 100 µM"
compound=Cc1nc2c(=O)n(C)c(=O)nc-2n(CCO)c1C recorded_result="> 100 µM"
compound=CCN=C=NCCCN(C)C recorded_result="> 100 µM"
compound=COc1ccc2[nH]c(-c3ccccc3)c(C=C(C#N)C#N)c2c1 recorded_result="> 100 µM"
compound=CCOC(=O)c1ccc(NC(=O)O/N=C(/Cl)C(C)C)cc1 recorded_result="27 µM"

----------
Tested on: OVCAR-3 ovarian
Assay Name: NCI tumour cell line growth inhibition, 48 h
Measured Property: TGI (µM)

molecule=Cc1cc(Nc2cc(CN3CCOCC3)c3nc(C)c(Cc4ccc(Cl)cc4F)n3n2)n[nH]1 recorded_result=15.3
molecule="COC1/C=C\\OC2(C)Oc3c(C)c(O)c4c(O)c(c(/C=N\\OCCCc5ccccc5)c(O)c4c3C2=O)NC(=O)/C(C)=C\\C=C/C(C)C(O)C(C)C(O)C(C)C(OC(C)=O)C1C (centres undefined)" recorded_result=9.61
molecule=C/C(=N/NC(=S)N(C)CCc1ccccn1)c1cnccn1 recorded_result=19
molecule=CN(C)/N=C1\C=C2CC[C@H](O[Si](C)(C)C(C)(C)C)[C@@]2(C)CC1 recorded_result=27.9

----------
System: A549 NSCLC
Assay Name: NCI tumour cell line growth inhibition, 48 h; in the data active = GI50 below about 0.43 µM; inactive = the rest
Labels: class 1 = active, class 0 = inactive

molecule=CCN1/C(=C/C=C/C=C/c2sc3ccccc3[n+]2CC)Sc2ccccc21 answer_label="class 1"
molecule="CCCCCCCCCCCCOC1C(CNCC2OC3OC(C)(C)OC3C2NC(=O)Nc2ccc(C(F)(F)F)cc2)OC2OC(C)(C)OC21 (configuration not stated)" answer_label="class 0"
molecule=Fc1c[c-]c(-c2ccccn2)c(F)c1.[CH3-].[Pt+2].c1ccc([PH+](c2ccccc2)c2ccccn2)cc1 answer_label="class 0"
molecule=CCc1nc(-n2c(CC)nc3ccccc3c2=O)nc(N)c1-c1ccc(Cl)cc1 answer_label="class 0"
molecule="CC(N)(Cc1c[nH]c2ccccc12)C(=O)O (configuration not stated)" answer_label="class 0"
molecule="COc1cccc2c1C(=O)c1c(O)c3c(c(O)c1C2=O)C[C@@](O)(C(=O)CO)C[C@@H]3OC1CC(OC(C)=O)C(OC(C)=O)C(C)O1 (some centres not stated)" answer_label="class 1"
molecule=O=S(=O)(CC#CCCCOCC#Cc1ccccc1C#CCS(=O)(=O)c1ccccc1)c1ccccc1 answer_label="class 0"
molecule=COc1ccc(S(=O)(=O)NC2=NCCN2C(=S)SN2CCn3c2nsc3=S)cc1OC answer_label="class 0"
molecule=O=C(Nc1ccc(Cl)cc1F)c1cc(F)ccc1O answer_label="class 0"
molecule=Cc1cc(Nc2cc(CN3CCOCC3)c3nc(C)c(Cc4ccc(Cl)cc4F)n3n2)n[nH]1 answer_label="class 0"
molecule=O=C1c2ccc3c4c(ccc(c24)C(=O)N1CCCNCc1ccccc1)C(=O)N(CCCNCc1ccccc1)C3=O answer_label="class 1"
molecule=O=c1c2[nH]c3ccccc3c2nc2n1CCS2 answer_label="class 0"
molecule=COc1cc[c]([Sb]([Br])([CH]=C(C)C)([CH]=C(C)C)[CH]=C(C)C)cc1 answer_label="class 0"
molecule="Cc1cc(O)c(C2=NN(c3ccc(S(N)(=O)=O)cc3)C(c3ccccc3O)C2)cc1Cl (configuration not stated)" answer_label="class 0"
molecule=C=CC(=O)NCCOc1cccc(Nc2cc(NCCCNC(=O)C3CCC3)c(Br)cn2)c1 answer_label="class 0"
molecule="COC1=C(C)C(=O)C2=C(C1=O)C(CO)N1C(C#N)C3CC4C(C1C2N1CCOC41)N3C (configuration not stated)" answer_label="class 1"
molecule="C=CC[N+]1(CCO)CCN=C1CCCCCCCCCCCCC (configuration not stated)" answer_label="class 0"

----------
Tested on: BT-549 breast
Assay Name: NCI tumour cell line growth inhibition, 48 h
Reported values of GI50 for individual entries
Measured Property: GI50

compound=COc1cc(-c2cc(-c3nc4cc(Cl)c(Cl)cc4[nH]3)[nH]n2)cc(OC)c1OC recorded_result="2.84 µM"
compound=COc1cc2cn3c4ccc(O)cc4nc(N)c3c2cc1OC recorded_result="1.61 µM"
compound="C=CCC(N[C@@H](CO)c1ccccc1)c1ccccn1 (stereo partly drawn)" recorded_result="> 100 µM"
compound=CSC1=Nc2c(c(C)c(-c3ccccc3)n2CCCCl)C2=NC(=O)CN12 recorded_result="4.93 µM"
compound=O=C(Nc1ccc(Cl)cc1F)c1cc(F)ccc1O recorded_result="0.83 µM"
compound="COc1ccc(C2=CC(c3ccc(Oc4ccnc5cc(Cl)ccc45)c(OC)c3)c3c(nc(OC)[nH]c3=O)N2)cc1 (stereo not drawn)" recorded_result="3.99 µM"
compound=COc1nc2c(cc1S(=O)(=O)c1ccccc1)CCc1c-2cnn1Cc1ccccc1 recorded_result="8.07 µM"
compound="OC(COc1cccc2ccccc12)CN1CCN(c2ccc(Cl)cc2)CC1 (stereo not drawn)" recorded_result="> 100 µM"
compound=C[C@H](C(=O)N[C@@H](Cc1ccc(-c2ccccc2)cc1)C(=O)NC1CC(C)(C)N(C)C(C)(C)C1)c1ccc(-c2ccccc2)c(F)c1 recorded_result="1.62 µM"
compound=Cc1c2cnccc2c(C)c2c1c1cc(C(=O)O)ccc1n2C recorded_result="1.47 µM"
compound=Cc1cc(Nc2cc(CN3CCOCC3)c3nc(C)c(Cc4ccc(Cl)cc4F)n3n2)n[nH]1 recorded_result="1.73 µM"
compound="CC(N)(Cc1c[nH]c2ccccc12)C(=O)O (stereo not drawn)" recorded_result="> 2500 µM"
compound="C[n+]1c2cc(N)ccc2cc2ccc(N)cc21 (tested in a mixture with another compound)" recorded_result="0.624 µM"

----------
Test system: SF-268 CNS
Assay Name: NCI tumour cell line growth inhibition, 48 h; in the data active = GI50 below about 0.43 µM; inactive = the rest
Outcomes: 1 for active, 0 for inactive

compound="CCCCCCCCCCCCOC1C(CNCC2OC3OC(C)(C)OC3C2NC(=O)Nc2ccc(C(F)(F)F)cc2)OC2OC(C)(C)OC21 (stereo not given)" answer_label=0
compound=COc1cc2cn3c4ccc(O)cc4nc(N)c3c2cc1OC answer_label=1
compound=Cc1cc(Nc2cc(CN3CCOCC3)c3nc(C)c(Cc4ccc(Cl)cc4F)n3n2)n[nH]1 answer_label=0
compound=CN(C)CCN1C(=O)c2cccc3c(N)ccc(c23)C1=O answer_label=0
compound=CCOC(=O)/C(=C/c1ccccc1)C(=O)c1ccccc1 answer_label=0

----------
Test system: NCI/ADR-RES ovarian
Assay Name: NCI tumour cell line growth inhibition, 48 h
// reported TGI for each item listed
Measured Property: TGI (µM)

compound="Brc1cccc(Nc2ncnc3sc4c(c23)CCC(Nc2cccc(Br)c2)C4)c1 (stereo not given)" sign=> recorded_result=100
compound=COC(=O)CCCC(=O)NC1=C(Nc2ccccc2)C(=O)c2ccccc2C1=O sign== recorded_result=56
compound="CC(C)(Cl)C(Br)CCC(CBr)=C(Cl)CCl (mixture of isomers)" sign== recorded_result=5.21
compound="Cc1cc(O)c(C2=NN(c3ccc(S(N)(=O)=O)cc3)C(c3ccccc3O)C2)cc1Cl (stereo not given)" sign== recorded_result=8.84
compound=Cc1ccc(C(=O)OC(C)C)cc1N=NN(C)C sign=> recorded_result=100
compound=COc1ccc2c(O)c(/C=C3\N=Nc4ncccc43)oc2c1C[C@H]1CCNC[C@H]1F sign== recorded_result=28.9
compound="CC(C)(C)OC(=O)NNC(=O)C1Cc2ccccc2OC1=O (stereo not given)" sign=> recorded_result=100
compound=CCN(CC)CCOc1ccc(N2Cc3ccccc3C2=O)cc1 sign=> recorded_result=10
compound="C=C(C)C(=O)OC1C(C(C)CCCO)=C(CO)CC2OC(=O)C(=C)C21 (stereo not given)" sign=> recorded_result=100
compound=O=C(CCc1ccco1)NC1CCN(CC2(c3ccc(Cl)cc3)CCC2)CC1 sign== recorded_result=36
